- Tested on: Ps. aeruginosa DY-2
- Test Summary: MIC by agar dilution, Ps. aeruginosa DY-2
- Format: cell-based
- Condition Info: Pseudomonas aeruginosa, DY2, 17 h; Ps. aeruginosa DY-2; agar dilution, Mueller-Hinton agar; read-out: Minimal Inhibitory Concentration (MIC)
Property Label: MIC (µg/mL)
// return numeric value only (unit: µg/mL, not printed)

Task item: Can you share its MIC? I mean this compound: CCO/N=C(\C(=O)N[C@@H]1C(=O)N2C(C(=O)[O-])=C(C[n+]3cc(CC)n4cccc4c3)CS[C@H]12)c1csc(N)n1 [Ex. 38]
Reply: 3.13

Task item: Field entry: CON=C(C(=O)NC1C(=O)N2C(C(=O)[O-])=C(C[n+]3ccn4c(C#N)ccc4c3)CSC12)c1csc(N)n1 (stereo not drawn) [Ex. 13]
Reply: 3.13

Task item: Field entry: CO/N=C(\C(=O)N[C@@H]1C(=O)N2C(C(=O)[O-])=C(C[n+]3ccn4ccc(CO)c4c3)CS[C@H]12)c1nc(N)sc1Cl [Ex. 54]
Reply: 12.5
